Test: Identification of proteins required for the processing of the EWS-FLI1 nascent transcript;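 also: robust z of luciferase light less the median z of siRNAs with the same seed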
Conditions: TC32 Ewing sarcoma NR0B1-luc vs CMV-luc (EWS-FLI1 target promoter against control promoter), 48 h; screened at 20 nM (by protocol)
The full ranking holds about 59,000 sequences; the median of the read-out is about -0.00055, and the lowest 2% start at about -2. Shown is part of a subset that was picked to be rich in the lowest values.
Lab note: anything with seed-corrected z-score at or over -0.0003 counts as Condition met; the rest go in Condition not met.

SEQ_TEXT	ASSIGNED_CATEGORY
UGUCUGUUUGUUGAAACUC against APOA5	Condition not met
AAAAGUCCUAGCAUAUUCC against ZER1	Condition met
UUGAGUCUUAGCAAUGUGA against KIAA0895L	Condition not met
AAUCCUCUUAUGAAUAACG against ZNF331	Condition not met
AAAGCGUAGAAAAUAUCCC against DNAH5	Condition not met
UGCUGUUAGUUUGUGAUGC against LOC729254	Condition met
UAAAGGUCAAGCAGUCAGU against PVRL4	Condition met
UUUGAGUCCACCACGAAGC against MYH3	Condition not met
UUGAAGUUUUCAAUUGUGC against CYSLTR2	Condition not met
UUGGUUAACCAGGUUCACC against LOC390282	Condition not met
UAACUUACUGAGAAUCGGC against LCP2	Condition not met
UAUAGUAAAGCCCAGACGG against CNTNAP3	Condition not met
AAGUCUACAAGUGAUCUCU against ATP6V0E2-AS1	Condition not met
UUCUGGAUUCUGGGCAUCG against IFI6	Condition not met
AAAGUUGAGGGUAGCACUC against AP5B1	Condition met
ACCUCUGCAUCUCUUGUUC against TCF23	Condition not met
UGUGAAAGAGGCGAAAUGC against ELAC1	Condition met
UAGGAGAUAGCGAUGACCA against NPBWR1	Condition met
UCAAAGGUCACGGUCAGGA against PRDM15	Condition not met
UAAUGUACACCACAUUGGG against FAM198B	Condition not met
UUGCGAAUGAGGUUGUAGG against PIK3C2B	Condition not met
UCAUUGAUCUAAAACGACC against PPFIA1	Condition met
UAGUGCUUAUCCUAGAAUC against KLK8	Condition met
UCUUCGUCCACUCUGAAUC against NMU	Condition not met
UUCUGGUUAGUCAUAUUGG against HDAC1	Condition not met
UACAGAAUGGUUGUCUUGC against ARF4	Condition met
